IC90 values by entry
- Test system: Plasmodium falciparum
- experimental.details: Antimalarial activity against Plasmodium falciparum isolates assessed as parasite growth inhibition after 72 hrs by ELISA based histidine-rich protein 2 in vitro drug susceptibility assay
- Type: functional, organism-based

{"molecule": "C=C[C@H]1CN2CC[C@H]1C[C@H]2[C@H](O)c1ccnc2ccc(OC)cc12", "IC90 [nM]": 441}
{"molecule": "CN(C)c1cc(NC(=O)CNC(C)(C)C)c(O)c2c1C[C@H]1C[C@H]3[C@H](N(C)C)C(O)=C(C(N)=O)C(=O)[C@@]3(O)C(O)=C1C2=O", "IC90 [nM]": 5910}
{"molecule": "OC(c1cc(C(F)(F)F)nc2c(C(F)(F)F)cccc12)C1CCCCN1 (configuration not stated)", "IC90 [nM]": 64}
{"molecule": "C[C@H]1[C@@H](O)O[C@@H]2O[C@@]3(C)CC[C@H]4[C@H](C)CC[C@@H]1[C@@]24OO3", "IC90 [nM]": 2.76}
{"molecule": "CC[C@H]1OC(=O)[C@H](C)[C@@H](O[C@H]2C[C@@](C)(OC)[C@@H](O)[C@H](C)O2)[C@H](C)[C@@H](O[C@@H]2O[C@H](C)C[C@H](N(C)C)[C@H]2O)[C@](C)(O)C[C@@H](C)CN(C)[C@H](C)[C@@H](O)[C@]1(C)O", "IC90 [nM]": 18400}
{"molecule": "C[C@H]1c2cccc(O)c2C(=O)C2=C(O)[C@]3(O)C(=O)C(C(N)=O)=C(O)[C@@H](N(C)C)[C@@H]3[C@@H](O)[C@@H]21.O", "IC90 [nM]": 19400}
{"molecule": "CCN(CC)CCCC(C)Nc1ccnc2cc(Cl)ccc12 (configuration not stated)", "IC90 [nM]": 303}
